meta.source: ChEMBL document CHEMBL5518198

Let's look at some compounds and their measured Activity.
Test system: A20
assay_details: Anticancer activity against mouse A20 cells assessed as cell growth inhibition at 10 uM after 72 hrs by CCK-8 assay
Assay type: functional
Set-up: scale not given: the % may be the effect or the level left
Non-standard residues stand in square brackets, D forms with d. Residues, ends and D or L forms follow the SMILES beside them. dDip = N[C@@H](C(=O)O)C(c1ccccc1)c1ccccc1; Dip = N[C@H](C(=O)O)C(c1ccccc1)c1ccccc1; AEA = NCCOCC(=O)O
measured_endpoint: Activity (%)

>>> reported_result("NCCCC[C@@H](N)C(=O)N[C@H](CCCCN)C(=O)N[C@H](Cc1c[nH]c2ccccc12)C(=O)N[C@H](Cc1c[nH]c2ccccc12)C(=O)N[C@H](CCCCN)C(=O)N[C@H](CCCCN)C(=O)N[C@H](Cc1c[nH]c2ccccc12)C(=O)N[C@@H](C(=O)N[C@H](CCCCN)C(=O)NN)C(c1ccccc1)c1ccccc1")
76
>>> reported_result("NCCCC[C@H](NC(=O)[C@@H](NC(=O)[C@H](Cc1c[nH]c2ccccc12)NC(=O)[C@H](CCCCN)NC(=O)[C@H](CCCCN)NC(=O)[C@H](Cc1c[nH]c2ccccc12)NC(=O)[C@H](Cc1c[nH]c2ccccc12)NC(=O)[C@H](CCCCN)NC(=O)[C@H](CCCCN)NC(=O)COCCN)C(c1ccccc1)c1ccccc1)C(N)=O (H-[AEA]KKWWKKW[Dip]K-NH2)")
23
>>> reported_result("NCCCC[C@@H](N)C(=O)N[C@H](CCCCN)C(=O)N[C@H](Cc1c[nH]c2ccccc12)C(=O)N[C@H](Cc1c[nH]c2ccccc12)C(=O)N[C@H](CCCCN)C(=O)N[C@H](CCCCN)C(=O)N[C@H](Cc1c[nH]c2ccccc12)C(=O)N[C@@H](C(=O)N[C@H](CCCCN)C(N)=O)C(c1ccccc1)c1ccccc1 (H-[dK][dK][dW][dW][dK][dK][dW][dDip][dK]-NH2)")
87
>>> reported_result("CC(=O)N[C@@H](CCCCN)C(=O)N[C@@H](CCCCN)C(=O)N[C@@H](Cc1c[nH]c2ccccc12)C(=O)N[C@@H](Cc1c[nH]c2ccccc12)C(=O)N[C@@H](CCCCN)C(=O)N[C@@H](CCCCN)C(=O)N[C@@H](Cc1c[nH]c2ccccc12)C(=O)N[C@H](C(=O)N[C@@H](CCCCN)C(N)=O)C(c1ccccc1)c1ccccc1 (Ac-KKWWKKW[Dip]K-NH2)")
37

----------
assay_details: Stability in human serum assessed as compound degradation at 100 uM after 72 hrs
Format: ADME, cell-free
condition_context: read-out: Drug degradation
measured_endpoint: metabolised at 72 h, 100 µM (%)

>>> reported_result("NCCCC[C@@H](N)C(=O)N[C@H](CCCCN)C(=O)N[C@H](Cc1c[nH]c2ccccc12)C(=O)N[C@H](Cc1c[nH]c2ccccc12)C(=O)N[C@H](CCCCN)C(=O)N[C@H](CCCCN)C(=O)N[C@H](Cc1c[nH]c2ccccc12)C(=O)N[C@@H](C(=O)N[C@H](CCCCN)C(=O)NN)C(c1ccccc1)c1ccccc1")
17
>>> reported_result("NCCCC[C@@H](N)C(=O)N[C@@H](C(=O)N[C@H](Cc1c[nH]c2ccccc12)C(=O)N[C@H](CCCCN)C(=O)N[C@H](CCCCN)C(=O)N[C@H](Cc1c[nH]c2ccccc12)C(=O)N[C@H](Cc1c[nH]c2ccccc12)C(=O)N[C@H](CCCCN)C(=O)N[C@H](CCCCN)C(N)=O)C(c1ccccc1)c1ccccc1")
33
>>> reported_result("NCCCC[C@H](NC(=O)[C@H](Cc1c[nH]c2ccccc12)NC(=O)[C@H](Cc1c[nH]c2ccccc12)NC(=O)[C@H](CCCCN)NC(=O)[C@@H](N)CCCCN)C(=O)N[C@@H](CCCCN)C(=O)N[C@@H](Cc1c[nH]c2ccccc12)C(=O)N[C@H](C(=O)N[C@@H](CCCCN)C(=O)NN)C(c1ccccc1)c1ccccc1")
84
